Target: T1, Human EphA2-Fc fusion protein (human EphA2 fused with the Fc portion of a human IgG1) (human, UniProt P29317 24-534, limits assumed)
T1 construct: also called biotinylated human EphA2-Fc; not shown: Fc portion of a human IgG1
T1 sequence (P29317 24-534 limits assumed): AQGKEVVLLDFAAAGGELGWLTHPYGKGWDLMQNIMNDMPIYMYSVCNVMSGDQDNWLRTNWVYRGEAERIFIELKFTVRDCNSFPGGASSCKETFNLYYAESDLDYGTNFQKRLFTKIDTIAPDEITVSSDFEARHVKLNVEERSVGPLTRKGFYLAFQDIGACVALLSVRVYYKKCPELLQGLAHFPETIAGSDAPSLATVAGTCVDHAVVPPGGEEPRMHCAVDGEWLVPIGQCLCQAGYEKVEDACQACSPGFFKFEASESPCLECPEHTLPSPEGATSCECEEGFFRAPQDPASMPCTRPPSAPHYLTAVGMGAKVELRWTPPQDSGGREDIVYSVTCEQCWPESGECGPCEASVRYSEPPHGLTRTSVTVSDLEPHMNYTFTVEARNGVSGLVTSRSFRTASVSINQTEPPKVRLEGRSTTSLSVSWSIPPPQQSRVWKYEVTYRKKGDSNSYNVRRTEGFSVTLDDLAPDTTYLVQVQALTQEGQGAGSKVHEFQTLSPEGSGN
Assay: SPR (BIAcore 3000), EphA2-Fc coupled to CM5 chip, IgG in solution, koff/kon
Recorded pKd values for a group of binders are listed next.
# log scale: pKd equals minus log10 of the concentration in mol/L

Answered examples (3):
{"columns": ["binder", "obs_value"],
 "data": [
  ["VH-7E8/VL-8G7 (humanized) full length human IgG1 (antibody, V domains shown, Human IgG1 / human kappa, expressed in HEK 293 cells) VH: EVQLVESGGGLVKPGGSLRLSCAASGFTFSDYSMNWVRQASGKGLEWVGFIRNKANDYTTEYSASVKGRFTISRDDSKNTLYLQMNSLKTEDTAVYYCTTYPRYHAMDSWGQGTLVTVSS VL: EIVLTQSPATLSVSPGERATLSCRASQSISNNLHWYQQKPGKAPKSLIYYVFQSISGVPSRFSGSGSGTDFTLTINSLEAEDAATYYCQQSNSWPLTFGGGTKVDIK", 7.32],
  ["mAb B233 (mouse anti-human EphA2 monoclonal antibody) (antibody, V domains shown, Murine hybridoma antibody; also called B233 (murine); parental mAb B233) VH: EVKLVESGGGLVQPGGSLSLSCAASGFTFTDYSMNWVRQPPGKALEWLGFIRNKANDYTTEYSASVKGRFTISRDNSQSILYLQMNALRAEDSATYYCVRYPRYHAMDSWGQGTSVTVSS VL: DIVLTQSPATLSVTPGDSVNLSCRASQSISNNLHWYQQKSHESPRLLIKYVFQSISGIPSRFSGSGSGTDFTLSINSVETEDFGMYFCQQSNSWPLTFGAGTKLELK", 9.40],
  ["VH-233/VL-233 IgG (chimaeric form of mAb B233, full length human IgG1) (antibody, V domains shown, Human IgG1 / human kappa constant regions, expressed in HEK 293 cells; also called VH-B233/VL-B233 (chimeric); chimaeric B233) VH: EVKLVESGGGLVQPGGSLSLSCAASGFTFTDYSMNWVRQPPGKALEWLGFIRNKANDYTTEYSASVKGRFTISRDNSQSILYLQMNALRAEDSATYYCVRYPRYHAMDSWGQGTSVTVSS VL: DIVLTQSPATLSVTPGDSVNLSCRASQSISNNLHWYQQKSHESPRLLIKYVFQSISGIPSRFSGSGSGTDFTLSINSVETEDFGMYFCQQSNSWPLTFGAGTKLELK", 9.52]
]}

Below: the item to evaluate.
Ask | Look up pKd of VH-2G6/VL-12C8 (humanized) full length human IgG1 (antibody, V domains shown, Human IgG1 / human kappa, expressed in HEK 293 cells) VH: EVQLVESGGGVVRPGGSLRLSCAASGFTVSDYSMNWVRQAPGKGLEWIGFIRNKANDYTTEYSASVKGRFTISRDDSKNTLYLQMNSLKTEDTAVYYCTTYPRYHAMDSWGQGTMVTVSS VL: AIQLTQSPSSLSASVGDRVTITCRASQSISNNLHWYLQKPGQSPQLLIYYVFQSISGVPSRFSGSGSGTDFTLTISSLQPEDFATYYCQQSNSWPLTFGGGTKLEIK and report it.
Reply | 8.52
